methodDescription: Solubility in compound in FessIF at pH 5.0 incubated for 24 hrs by HPLC-UV analysis
Assay type: physicochemical
measuredProperty: solubility at 24 h (µM)
Answer with a number only, understood to be in µM.

q: # query: solubility at 24 h of entry COc1cc(Nc2ccc3c(n2)CN(C)C32CCN(C3COC3)CC2)c(C(N)=O)nc1-c1cccc2c1ncn2C
a: 134

###

measuredProperty: IC50

q: API: value(readout=IC50, system=Serine/threonine-protein kinase PAK 2 (Homo sapiens, UniProt Q13177)) for record COc1cc(Nc2ccc3c(n2)CN(C)C32CCN(C3COC3)CC2)c(C(N)=O)nc1-c1cccc2c1ncn2C
a: > 10 µM

###

methodDescription: in vivo
measurementContext: Sprague-Dawley, rat, plasma, iv
Description: Clearance in Sprague-Dawley rat plasma administered as iv dose
measuredProperty: clearance (mL/min/kg)
Answer with a number only, understood to be in mL/min/kg.

q: # query: clearance of entry COc1cc(Nc2ccc3c(n2)CN(C)C32CCOCC2)c(C(N)=O)nc1-c1cncc2c1ncn2C
a: 32.6

###

I'd appreciate it if you could supply Vd values for the items below.
methodDescription: in vivo
measurementContext: Beagle, dog, iv, 1 mg/kg
Description: Volume of distribution in Beagle dog at 1 mg/kg, iv
Answer with a number only, understood to be in L/kg.

q: # query: Vd of entry CN1Cc2nc(Nc3cc(C4CC4)c(-c4cccc5c4ncn5C)nc3C(N)=O)ccc2C12CCN(C1COC1)CC2
a: 6

q: # query: Vd of entry COc1cc(Nc2ccc3c(n2)CN(C)C32CCN(C3COC3)CC2)c(C(N)=O)nc1-c1cccc2c1ncn2C
a: 5.58

###

measuredProperty: pIC50
# reply with the number alone; pIC50 is -log10 of concentration in mol/L

q: API: value(readout=pIC50, system=Proto-oncogene tyrosine-protein kinase receptor Ret (Homo sapiens)) for record COc1cc(Nc2ccc3c(n2)CN(C)C32CCN(C3COC3)CC2)c(C(N)=O)nc1-c1cccc2c1ncn2C
a: 5.52

###

I'd appreciate it if you could supply EC50 values for the items below.
target: Mitogen-activated protein kinase kinase kinase kinase 1 (Homo sapiens, UniProt Q92918)
Sequence (Q92918 whole entry): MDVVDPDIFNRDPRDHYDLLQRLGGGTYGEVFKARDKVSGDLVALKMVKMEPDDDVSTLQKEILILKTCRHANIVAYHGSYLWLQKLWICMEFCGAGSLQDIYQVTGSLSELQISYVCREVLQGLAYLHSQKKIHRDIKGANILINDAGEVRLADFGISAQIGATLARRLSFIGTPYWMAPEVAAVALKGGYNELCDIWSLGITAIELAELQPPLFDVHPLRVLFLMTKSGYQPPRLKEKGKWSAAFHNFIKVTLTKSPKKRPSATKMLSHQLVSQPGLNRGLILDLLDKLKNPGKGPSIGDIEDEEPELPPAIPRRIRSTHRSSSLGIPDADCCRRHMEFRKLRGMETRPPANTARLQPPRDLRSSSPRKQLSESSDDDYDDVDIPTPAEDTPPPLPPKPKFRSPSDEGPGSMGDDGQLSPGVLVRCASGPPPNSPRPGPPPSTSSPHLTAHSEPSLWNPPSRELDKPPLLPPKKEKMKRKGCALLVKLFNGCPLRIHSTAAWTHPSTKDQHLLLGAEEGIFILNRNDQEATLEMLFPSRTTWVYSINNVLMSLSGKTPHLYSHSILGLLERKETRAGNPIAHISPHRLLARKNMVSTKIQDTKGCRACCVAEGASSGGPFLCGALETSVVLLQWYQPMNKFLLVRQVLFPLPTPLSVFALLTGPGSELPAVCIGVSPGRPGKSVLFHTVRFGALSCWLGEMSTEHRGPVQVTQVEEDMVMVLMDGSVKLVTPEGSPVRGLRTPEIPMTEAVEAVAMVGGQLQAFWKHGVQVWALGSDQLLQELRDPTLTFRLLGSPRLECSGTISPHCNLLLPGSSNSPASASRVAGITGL
methodDescription: Inhibition of HPK1 in human PBMC cells assessed as IL-2 level pretreated for 4 hrs followed by anti-CD3/CD28 stimulation for 20 mins by HTRF method
Answer with a number only, understood to be in µM.

q: # query: EC50 of entry COc1cc(Nc2ccc3c(n2)CN(C)C32CCOCC2)c(C(N)=O)nc1-c1cccc2c1ncn2C(F)F
a: 0.102

q: # query: EC50 of entry CN1Cc2nc(Nc3cc(OC(F)F)c(-c4cccc5c4ncn5C)nc3C(N)=O)ccc2C12CCOCC2
a: 0.0549

q: # query: EC50 of entry CN1Cc2nc(Nc3cc(C4CC4)c(-c4cccc5c4ncn5C)nc3C(N)=O)ccc2C12CCN(C1COC1)CC2
a: 0.0327

q: # query: EC50 of entry COc1cc(Nc2ccc3c(n2)CN(C)C32CCCC2)c(C(N)=O)nc1-c1cccc2c1ncn2C
a: 0.149

q: # query: EC50 of entry CCN1Cc2nc(Nc3cc(OC)c(-c4cccc5c4ncn5C)nc3C(N)=O)ccc2C12CCOCC2
a: 0.168

q: # query: EC50 of entry COc1cc(Nc2ccc3c(n2)CN(C)C32CCN(C3COC3)CC2)c(C(N)=O)nc1-c1cccc2c1ncn2C
a: 0.0433

q: # query: EC50 of entry COc1cc(Nc2ccc3c(n2)CN(C)C32CCOCC2)c(C(N)=O)nc1-c1cncc2c1ncn2C
a: 0.01

###

methodDescription: Half life in Balb/c mouse administered as po dose
Type: ADME, organism-based
measurementContext: in vivo
measuredProperty: half-life

q: # query: half-life of entry CN1Cc2nc(Nc3ccc(C4=CCCC(NC(=O)c5ccccc5)C4)nc3C(N)=O)ccc2C12CCOCC2 (stereo unspecified)
a: 55.8 min

###

methodDescription: Oral bioavailability n Sprague-Dawley rat at 10 mg/kg
Type: ADME, organism-based
measurementContext: in vivo
measuredProperty: bioavailability (%)
Answer with a number only, understood to be in %.

q: # query: bioavailability of entry COc1cc(Nc2ccc3c(n2)CN(C)C32CCN(C3COC3)CC2)c(C(N)=O)nc1-c1cccc2c1ncn2C
a: 34.7

q: # query: bioavailability of entry CN1Cc2nc(Nc3cc(C4CC4)c(-c4cccc5c4ncn5C)nc3C(N)=O)ccc2C12CCN(C1COC1)CC2
a: 54.7

###

methodDescription: Half life in Balb/c mouse at 10 mg/kg, po
Type: ADME, organism-based
measurementContext: in vivo
measuredProperty: half-life (min)
Answer with a number only, understood to be in min.

q: # query: half-life of entry COc1cc(Nc2ccc3c(n2)CN(C)C32CCN(C3COC3)CC2)c(C(N)=O)nc1-c1cccc2c1ncn2C
a: 87

q: # query: half-life of entry CN1Cc2nc(Nc3cc(C4CC4)c(-c4cccc5c4ncn5C)nc3C(N)=O)ccc2C12CCN(C1COC1)CC2
a: 260

###

methodDescription: Clearance in Balb/c mouse plasma administered as iv dose
Type: ADME, organism-based
measuredProperty: clearance
The reply should consist of the numeric value with the unit placed after it.

q: # query: clearance of entry CN1Cc2nc(Nc3ccc(C4=CCCC(NC(=O)c5ccccc5)C4)nc3C(N)=O)ccc2C12CCOCC2 (stereo unspecified)
a: 23.7 mL/min/kg

###

methodDescription: in vivo
measurementContext: Balb/c, mouse, iv, 1 mg/kg
Description: Volume of distribution in Balb/c mouse at 1 mg/kg, iv
measuredProperty: Vd
The reply should consist of the numeric value with the unit placed after it.

q: # query: Vd of entry CN1Cc2nc(Nc3cc(C4CC4)c(-c4cccc5c4ncn5C)nc3C(N)=O)ccc2C12CCN(C1COC1)CC2
a: 1.08 L/kg

q: # query: Vd of entry COc1cc(Nc2ccc3c(n2)CN(C)C32CCN(C3COC3)CC2)c(C(N)=O)nc1-c1cccc2c1ncn2C
a: 2.13 L/kg

###

target: Tyrosine-protein kinase Lyn (Homo sapiens)
Sequence (P07948 whole entry): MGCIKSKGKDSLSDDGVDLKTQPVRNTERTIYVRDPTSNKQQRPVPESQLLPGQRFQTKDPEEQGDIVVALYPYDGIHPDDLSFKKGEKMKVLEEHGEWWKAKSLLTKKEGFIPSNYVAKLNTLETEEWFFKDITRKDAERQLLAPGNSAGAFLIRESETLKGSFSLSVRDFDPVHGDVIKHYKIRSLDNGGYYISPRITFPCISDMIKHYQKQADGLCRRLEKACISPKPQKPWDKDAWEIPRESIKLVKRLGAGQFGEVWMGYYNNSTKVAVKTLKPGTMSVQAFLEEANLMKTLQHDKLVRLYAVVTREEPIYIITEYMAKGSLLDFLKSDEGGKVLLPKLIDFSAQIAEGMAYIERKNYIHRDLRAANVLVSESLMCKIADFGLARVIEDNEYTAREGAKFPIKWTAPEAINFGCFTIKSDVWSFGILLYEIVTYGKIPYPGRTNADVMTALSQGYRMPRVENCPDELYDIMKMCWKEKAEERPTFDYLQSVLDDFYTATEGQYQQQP
measuredProperty: pIC50
# reply with the number alone; pIC50 is -log10 of concentration in mol/L

q: # query: pIC50 of entry COc1cc(Nc2ccc3c(n2)CN(C)C32CCN(C3COC3)CC2)c(C(N)=O)nc1-c1cccc2c1ncn2C
a: 5.29

###

methodDescription: in vivo
measurementContext: Sprague-Dawley, rat, po
Description: Oral bioavailability in Sprague-Dawley rat
measuredProperty: bioavailability (%)
Answer with a number only, understood to be in %.

q: # query: bioavailability of entry COc1cc(Nc2ccc3c(n2)CN(C)C32CCOCC2)c(C(N)=O)nc1-c1cncc2c1ncn2C
a: 24.3

###

methodDescription: in vivo
measurementContext: Sprague-Dawley, rat, iv, 1 mg/kg
Description: Volume of distribution in Sprague-Dawley rat at 1 mg/kg, iv
I'd appreciate it if you could supply Vd values for the items below.
Answer with a number only, understood to be in L/kg.

q: # query: Vd of entry CN1Cc2nc(Nc3cc(C4CC4)c(-c4cccc5c4ncn5C)nc3C(N)=O)ccc2C12CCN(C1COC1)CC2
a: 2.25

q: # query: Vd of entry COc1cc(Nc2ccc3c(n2)CN(C)C32CCN(C3COC3)CC2)c(C(N)=O)nc1-c1cccc2c1ncn2C
a: 2.2

###

methodDescription: Plasma protein binding in rat assessed as unbound fraction at 2 uM incubated for 4 hrs by LC-MS/MS analysis
Assay type: ADME, cell-free
measuredProperty: fraction unbound at 4 h, 2 µM

q: # query: fraction unbound at 4 h, 2 µM of entry COc1cc(Nc2ccc3c(n2)CN(C)C32CCN(C3COC3)CC2)c(C(N)=O)nc1-c1cccc2c1ncn2C
a: 0.058

###

target: Mitogen-activated protein kinase kinase kinase kinase 5 (Homo sapiens)
Sequence (Q9Y4K4 whole entry): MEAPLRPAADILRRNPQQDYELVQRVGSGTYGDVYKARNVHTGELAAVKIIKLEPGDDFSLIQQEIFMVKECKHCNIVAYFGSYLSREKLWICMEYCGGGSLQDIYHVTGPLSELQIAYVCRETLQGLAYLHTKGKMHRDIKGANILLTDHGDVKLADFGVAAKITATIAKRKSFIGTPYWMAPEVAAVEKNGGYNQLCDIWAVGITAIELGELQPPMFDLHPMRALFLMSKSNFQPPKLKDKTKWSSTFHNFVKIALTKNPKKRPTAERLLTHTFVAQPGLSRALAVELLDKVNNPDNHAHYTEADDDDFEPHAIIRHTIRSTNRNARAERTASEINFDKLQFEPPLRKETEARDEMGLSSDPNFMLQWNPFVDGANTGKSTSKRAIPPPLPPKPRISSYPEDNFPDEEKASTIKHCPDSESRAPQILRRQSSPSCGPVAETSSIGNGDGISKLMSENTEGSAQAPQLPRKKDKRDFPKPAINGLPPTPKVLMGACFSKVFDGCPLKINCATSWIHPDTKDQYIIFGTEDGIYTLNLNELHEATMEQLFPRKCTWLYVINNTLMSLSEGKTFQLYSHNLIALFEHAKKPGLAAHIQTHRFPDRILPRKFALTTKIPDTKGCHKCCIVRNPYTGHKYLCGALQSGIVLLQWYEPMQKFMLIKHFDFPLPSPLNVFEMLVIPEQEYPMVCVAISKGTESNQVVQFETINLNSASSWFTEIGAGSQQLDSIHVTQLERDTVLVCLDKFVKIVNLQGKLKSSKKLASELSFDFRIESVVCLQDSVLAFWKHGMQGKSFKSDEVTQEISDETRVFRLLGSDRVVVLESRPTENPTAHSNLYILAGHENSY
methodDescription: Inhibition of human GST-tagged full length recombinant MAP4K5 expressed in insect cells
measuredProperty: IC50 (µM)
Answer with a number only, understood to be in µM.

q: # query: IC50 of entry COc1cc(Nc2ccc3c(n2)CN(C)C32CCN(C3COC3)CC2)c(C(N)=O)nc1-c1cccc2c1ncn2C
a: 0.185

###

target: Cyclin-dependent kinase 2 (Homo sapiens, UniProt P24941)
pIC50: −log10 of the molar value.
measuredProperty: pIC50

q: # query: pIC50 of entry COc1cc(Nc2ccc3c(n2)CN(C)C32CCN(C3COC3)CC2)c(C(N)=O)nc1-c1cccc2c1ncn2C
a: < 5.00

###

I'd appreciate it if you could supply EC50 values for the items below.
methodDescription: Effect on IFN-gamma secretion in human T cells by ELISA method
Assay type: functional, cell-based
measurementContext: T-cell
Answer with a number only, understood to be in nM.

q: # query: EC50 of entry CN(C)Cc1nc(Nc2ccc(-c3cnc4cc(F)ccn34)c3c2C(=O)NC3)ccc1C1CCOCC1
a: 22.2

q: # query: EC50 of entry COc1cc(Nc2ccc3c(n2)CN(C)C32CCN(C3COC3)CC2)c(C(N)=O)nc1-c1cccc2c1ncn2C
a: 49.2

###

methodDescription: in vivo
measurementContext: Sprague-Dawley, rat, iv
Description: Volume of distribution in Sprague-Dawley rat administered as iv dose
measuredProperty: Vd (L/kg)
Answer with a number only, understood to be in L/kg.

q: # query: Vd of entry COc1cc(Nc2ccc3c(n2)CN(C)C32CCOCC2)c(C(N)=O)nc1-c1cncc2c1ncn2C
a: 1.75
